target.system: tyrosine kinase (KDR) (Homo sapiens, UniProt P35968)
Construct: purchased CARNABIO SCIENCE Co. Ltd. JAPAN
Sequence (P35968 790-1356 limits assumed): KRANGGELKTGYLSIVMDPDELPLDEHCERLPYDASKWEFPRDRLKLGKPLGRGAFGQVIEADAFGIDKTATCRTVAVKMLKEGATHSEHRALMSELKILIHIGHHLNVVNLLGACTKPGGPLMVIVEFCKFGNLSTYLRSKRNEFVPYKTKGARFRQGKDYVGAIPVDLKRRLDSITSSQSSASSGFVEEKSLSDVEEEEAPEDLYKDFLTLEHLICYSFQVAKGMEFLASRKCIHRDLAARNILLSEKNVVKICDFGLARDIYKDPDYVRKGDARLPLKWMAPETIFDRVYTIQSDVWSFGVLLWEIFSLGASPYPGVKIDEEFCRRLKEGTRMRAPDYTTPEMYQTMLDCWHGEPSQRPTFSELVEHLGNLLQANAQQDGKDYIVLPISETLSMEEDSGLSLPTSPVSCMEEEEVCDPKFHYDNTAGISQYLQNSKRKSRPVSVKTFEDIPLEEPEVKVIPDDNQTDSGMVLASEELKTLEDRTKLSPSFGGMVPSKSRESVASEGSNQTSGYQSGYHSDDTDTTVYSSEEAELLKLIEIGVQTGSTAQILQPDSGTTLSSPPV
measurement.description: Evaluation test of inhibitory effect of tyrosine kinase (KDR) activity, ELISA method (CARNABIO SCIENCE kit)
Type: biochemical
condition: 4 mg/L test compound, 1 μM ATP, substrate 250 nM, 1 hour at room temperature, absorbance 450 nm; read-out: tyrosine kinase inhibition rates (% inhibition)
measured.endpoint: inhibition at 4 µg/mL (%)
Express the result in % but write the number alone.

CC(=O)Nc1cc(COc2ccccc2-c2nnc(Nc3ccccc3)o2)ccn1 [Compound 1-6] :: 65
Clc1ccc(Nc2nnc(-c3cccnc3SCc3ccnc4ccccc34)o2)cc1 [Compound 1-14] :: 90
Clc1cccc(Nc2nnc(-c3ccccc3SCc3ccncc3)s2)c1 [Compound 1-37] :: 84
c1ccc(Nc2nnc(-c3cccnc3SCc3ccncc3)o2)cc1 [Compound 1-10] :: 76
c1ccc(Nc2nnc(-c3ccccc3SCc3ccnc4ccccc34)o2)cc1 [Compound 1-40] :: 88
CC(=O)Nc1cc(CSc2ccccc2-c2nnc(Nc3ccc(Cl)cc3)o2)ccn1 [Compound 1-45] :: 91

Enquiry: Which inhibition at 4 µg/mL is reported with tyrosine kinase (KDR) (Homo sapiens, UniProt P35968) for this entry: CNC(=O)c1cc(CSc2ncccc2-c2nnc(Nc3cccc(C(F)(F)F)c3)o2)ccn1 [Compound 1-21] ?
Return: 93

Enquiry: Please state recorded inhibition at 4 µg/mL (tested on tyrosine kinase (KDR) (Homo sapiens, UniProt P35968)) of CC(=O)Nc1cc(CSc2ncccc2-c2nnc(Nc3ccccc3)o2)ccn1 [Compound 1-16]
Return: 95

Enquiry: GET /values?readout=inhibition at 4 µg/mL&system=tyrosine kinase (KDR) (Homo sapiens, UniProt P35968)&item= c1ccc(Nc2nnc(-c3ccccc3OCc3ccncc3)o2)cc1 [Compound 1-1]
Return: 55

Enquiry: Give inhibition at 4 µg/mL (tyrosine kinase (KDR) (Homo sapiens, UniProt P35968)) of the following compound: CC(=O)Nc1cc(CSc2ccccc2-c2nnc(Nc3cccc(C(F)(F)F)c3)o2)ccn1 [Compound 1-46]
Return: 98

Enquiry: Given the entry c1ccc(Nc2nnc(-c3ccccc3SCc3ccncc3)o2)cc1 [Compound 1-32] , what inhibition at 4 µg/mL was observed with tyrosine kinase (KDR) (Homo sapiens, UniProt P35968)?
Return: 55

---

target.system: tyrosine kinase (KDR) (Homo sapiens, UniProt P35968)
Construct: purchased CARNABIO SCIENCE Co. Ltd. JAPAN
measurement.description: Evaluation test of inhibitory effect of tyrosine kinase (KDR) activity, ELISA method (CARNABIO SCIENCE kit)
Assay type: biochemical
condition: 4 mg/L test compound, 1 μM ATP, substrate 250 nM, 1 hour at room temperature, absorbance 450 nm; read-out: tyrosine kinase inhibition rates (% inhibition)
Counter-ions that a name gives are not always drawn.
Each entry gets Not fulfilled if its inhibition at 4 µg/mL stays under 90%, and Fulfilled if its inhibition at 4 µg/mL is 90% or above.

c1ccc(Nc2nnc(-c3ccccc3SCc3ccncc3)s2)cc1 :: Not fulfilled
CNC(=O)c1cc(CSc2ncccc2-c2nnc(Nc3ccc(Cl)cc3)o2)ccn1 :: Not fulfilled
Nc1cc(CSc2ncccc2-c2nnc(Nc3cccc(C(F)(F)F)c3)o2)ccn1 [Compound 1-92, hydrochloride] :: Fulfilled
CC(=O)Nc1cc(CSc2ncccc2-c2nnc(Nc3cccc(C(F)(F)F)c3)o2)ccn1 :: Fulfilled

Enquiry: Determine whether this compound has inhibition at 4 µg/mL no lower than 90%: CC(=O)Nc1cc(CSc2ncccc2-c2nnc(Nc3ccc(Cl)cc3)o2)ccn1
Return: Fulfilled

Enquiry: In plain terms: is recorded inhibition at 4 µg/mL at least 90% for Clc1ccc(Nc2nnc(-c3ccccc3SCc3ccncc3)o2)cc1 ?
Return: Not fulfilled

Enquiry: In plain terms: is recorded inhibition at 4 µg/mL at least 90% for FC(F)(F)c1cccc(Nc2nnc(-c3ccccc3SCc3ccncc3)o2)c1 ?
Return: Fulfilled

Enquiry: Could you tell me if the measured inhibition at 4 µg/mL of Nc1nccc(CSc2ccccc2-c2nnc(Nc3ccccc3)o2)n1 reaches 90% or more?
Return: Not fulfilled

Enquiry: Check the entry CC(C)(C)c1ccc(Nc2nnc(-c3ccccc3SCc3ccncc3)o2)cc1 : does inhibition at 4 µg/mL equal or exceed 90%?
Return: Not fulfilled

---

target.system: tyrosine kinase (KDR) (Homo sapiens, UniProt P35968)
Construct: purchased CARNABIO SCIENCE Co. Ltd. JAPAN
measurement.description: Evaluation test of inhibitory effect of tyrosine kinase (KDR) activity, ELISA method (CARNABIO SCIENCE kit)
Assay type: biochemical
condition: 4 mg/L test compound, 1 μM ATP, substrate 250 nM, 1 hour at room temperature, absorbance 450 nm; read-out: tyrosine kinase inhibition rates (% inhibition)
Structures can show the parent of a compound that is named as a salt.
measured.endpoint: inhibition at 4 µg/mL (%)
# unit: % | format: bare number

Example entries begin here.
FC(F)(F)c1cccc(Nc2nnc(-c3ccccc3OCc3ccncc3)o2)c1 [Compound 1-3] :: 80
Nc1cc(CSc2ncccc2-c2nnc(Nc3ccc(Cl)cc3)o2)ccn1 [Compound 1-91, hydrochloride] :: 86
c1ccc(Nc2nnc(-c3cccnc3SCc3ccnc4ccccc34)o2)cc1 [Compound 1-13] :: 72
CC(C)(C)OC(=O)Nc1cc(CSc2ncccc2-c2nnc(Nc3ccccc3)o2)ccn1 [Compound 1-7] :: 60
c1ccc(Nc2nnc(-c3ccccc3OCc3ccnc4ccccc34)o2)cc1 [Compound 1-4] :: 75
Clc1ccc(Nc2nnc(-c3ccccc3SCc3ccncc3)s2)cc1 [Compound 1-36] :: 68

Enquiry: Please provide the recorded inhibition at 4 µg/mL for CC(C)(C)c1ccc(Nc2nnc(-c3ccccc3SCc3ccncc3)s2)cc1 [Compound 1-39] , tested on tyrosine kinase (KDR) (Homo sapiens, UniProt P35968).
Return: 43

Enquiry: Record lookup: for tyrosine kinase (KDR) (Homo sapiens, UniProt P35968), what inhibition at 4 µg/mL belongs to FC(F)(F)c1ccc(Nc2nnc(-c3ccccc3SCc3ccncc3)s2)cc1 [Compound 1-38] ?
Return: 53
